// cytotoxicity at 70.5 h lookup, one value per entry
- method-notes: Human HepG2 cell viability assay in 384 well format
- Format: toxicity, cell-based
- Design: dose 125 nL, time 70.5 hour; concentration not given beside the values
- test-conditions: HepG2 cells, read-out: Inhibition
Kindly provide the numeric value in % only, without the unit symbol.

Cc1oc(C)c(C(=O)NCc2cccc(C(N)=O)c2)c1C    -4.54
CC(CN1CCN(C)CC1)NC(=O)c1cc(Cl)c2c(c1)OCO2 (stereo unspecified)    -0.705

Query: cytotoxicity at 70.5 h; subject: CN(C)C(CNS(=O)(=O)c1cc(F)ccc1F)c1cccn1C (stereo unspecified)
Reply: -11.3

Query: Again, but for CCCc1nc(N2CCSCC2)c2c(n1)c(C)nn2CC
Reply: -13.1

Query: Param item: CNC(=O)C1CN(Cc2c[nH]cn2)CCN(C2CCOCC2)C1 (stereo unspecified)
Reply: 14.9

Query: And what about the molecule O=C(c1ccc(C2CCCO2)s1)N1CCN(c2ccccc2F)CC1 (stereo unspecified) ?
Reply: -4.35

Query: Quick one: Cn1cc(S(=O)(=O)N2CCC(OCCCc3ccccc3)C2)cn1 (stereo unspecified)
Reply: 21.6

Query: And what about the molecule O=C([C@@H]1CC[C@@H]2[C@@H](CCN2CCOCc2ccccc2)O1)N1CCCC1 ?
Reply: 13

Query: Moving on to CCN1CCC(CNCc2c[nH]nc2C(C)(C)C)C1 (stereo unspecified)
Reply: -2.99

Query: Next up: Cc1nc(C2CCCN(C(=O)c3ccnc(N(C)C)c3)C2)no1 (stereo unspecified)
Reply: -3.61

Query: Try CC(C(=O)NCCOc1ccc(F)cc1)n1cncn1 (stereo unspecified) next.
Reply: -14.7
